Target: GST-Aq-NF-kB (Amphimedon queenslandica, UniProt A9Y5G7 2-389)
Sequence: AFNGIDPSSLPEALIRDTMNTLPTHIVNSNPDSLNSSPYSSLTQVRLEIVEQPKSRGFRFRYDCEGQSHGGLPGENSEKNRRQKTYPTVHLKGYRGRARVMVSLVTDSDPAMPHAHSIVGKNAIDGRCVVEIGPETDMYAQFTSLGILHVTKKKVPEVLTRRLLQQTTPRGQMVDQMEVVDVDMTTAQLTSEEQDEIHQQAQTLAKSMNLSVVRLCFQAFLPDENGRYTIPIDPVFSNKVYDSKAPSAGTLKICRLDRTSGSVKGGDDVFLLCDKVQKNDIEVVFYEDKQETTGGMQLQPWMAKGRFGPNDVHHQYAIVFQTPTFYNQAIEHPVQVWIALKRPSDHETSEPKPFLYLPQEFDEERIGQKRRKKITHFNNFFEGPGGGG
Experiment: protein-binding microarray (PBM); PBM: ~300 nM protein, 6 mM HEPES pH 7.8, 80 mM KCl, 0.5 mM EDTA, 0.5 mM EGTA, 6% glycerol, 35 ng/ul poly-dIdC, 1% milk, 1 h, room temperature; Ap Aiptasia and Nv Nematostella (sea anemones) / Co Capsaspora / Aq Amphimedon (sponge) / Dm Drosophila / Hu human; RHD is the Rel homology domain; high values mean tight binding
Conditions: dsDNA, one strand shown
Returns: string. Value is y if measured binding signal is below 5 z-score, and n if it is greater than or equal to it.

| BIOSEQUENCE | ASSAY SYSTEM | CAT |
| --- | --- | --- |
| CCGATTAACATCAAAATCCCCCATGATGTTAATCGGGTCTTGATTCGCTTGACGCTGCTG | GST-Aq-NF-kB (Amphimedon queenslandica, UniProt A9Y5G7 2-389) | n |
| CCGATTAACATCAGGGGCTTTACTGATGTTAATCGGGTCTTGATTCGCTTGACGCTGCTG | GST-Aq-NF-kB (Amphimedon queenslandica, UniProt A9Y5G7 2-389) | n |
| CCGATTAACATCAAAAATCTCCCTGATGTTAATCGGGTCTTGATTCGCTTGACGCTGCTG | GST-Aq-NF-kB (Amphimedon queenslandica, UniProt A9Y5G7 2-389) | n |
| CCGATTAACATCAGGGAACCCCATGATGTTAATCGGGTCTTGATTCGCTTGACGCTGCTG | GST-Aq-NF-kB (Amphimedon queenslandica, UniProt A9Y5G7 2-389) | y |
| CCGATTAACATCAATCCCCCCCATGATGTTAATCGGGTCTTGATTCGCTTGACGCTGCTG | GST-Aq-NF-kB (Amphimedon queenslandica, UniProt A9Y5G7 2-389) | y |
| CCGATTAACATCACGTGATTCCCTGATGTTAATCGGGTCTTGATTCGCTTGACGCTGCTG | GST-Aq-NF-kB (Amphimedon queenslandica, UniProt A9Y5G7 2-389) | y |
| CCGATTAACATCAATAAAATCCCTGATGTTAATCGGGTCTTGATTCGCTTGACGCTGCTG | GST-Aq-NF-kB (Amphimedon queenslandica, UniProt A9Y5G7 2-389) | y |
| CCGATTAACATCAAGAAATTCCCTGATGTTAATCGGGTCTTGATTCGCTTGACGCTGCTG | GST-Aq-NF-kB (Amphimedon queenslandica, UniProt A9Y5G7 2-389) | n |
| CCGATTAACATCAACATGGGAATTGATGTTAATCGGGTCTTGATTCGCTTGACGCTGCTG | GST-Aq-NF-kB (Amphimedon queenslandica, UniProt A9Y5G7 2-389) | y |
| CCGATTAACATCAGAAAATTCCATGATGTTAATCGGGTCTTGATTCGCTTGACGCTGCTG | GST-Aq-NF-kB (Amphimedon queenslandica, UniProt A9Y5G7 2-389) | y |
| CCGATTAACATCAGGGGGTGAAATGATGTTAATCGGGTCTTGATTCGCTTGACGCTGCTG | GST-Aq-NF-kB (Amphimedon queenslandica, UniProt A9Y5G7 2-389) | y |
| CCGATTAACATCAGGGGAAGTTATGATGTTAATCGGGTCTTGATTCGCTTGACGCTGCTG | GST-Aq-NF-kB (Amphimedon queenslandica, UniProt A9Y5G7 2-389) | n |
| CCGATTAACATCAACAAAGTCCCTGATGTTAATCGGGTCTTGATTCGCTTGACGCTGCTG | GST-Aq-NF-kB (Amphimedon queenslandica, UniProt A9Y5G7 2-389) | y |
| CCGATTAACATCAGGGACTTTTATGATGTTAATCGGGTCTTGATTCGCTTGACGCTGCTG | GST-Aq-NF-kB (Amphimedon queenslandica, UniProt A9Y5G7 2-389) | n |
| CCGATTAACATCATAAGCGGGGATGATGTTAATCGGGTCTTGATTCGCTTGACGCTGCTG | GST-Aq-NF-kB (Amphimedon queenslandica, UniProt A9Y5G7 2-389) | y |
| CCGATTAACATCATGGGGGGTAATGATGTTAATCGGGTCTTGATTCGCTTGACGCTGCTG | GST-Aq-NF-kB (Amphimedon queenslandica, UniProt A9Y5G7 2-389) | y |
| CCGATTAACATCAGAGAACCCCCTGATGTTAATCGGGTCTTGATTCGCTTGACGCTGCTG | GST-Aq-NF-kB (Amphimedon queenslandica, UniProt A9Y5G7 2-389) | n |
| CCGATTAACATCAGCTAGTCCCTTGATGTTAATCGGGTCTTGATTCGCTTGACGCTGCTG | GST-Aq-NF-kB (Amphimedon queenslandica, UniProt A9Y5G7 2-389) | y |
| CCGATTAACATCAGGCCACCCCCTGATGTTAATCGGGTCTTGATTCGCTTGACGCTGCTG | GST-Aq-NF-kB (Amphimedon queenslandica, UniProt A9Y5G7 2-389) | n |
| CCGATTAACATCAGGGAGAGCCCTGATGTTAATCGGGTCTTGATTCGCTTGACGCTGCTG | GST-Aq-NF-kB (Amphimedon queenslandica, UniProt A9Y5G7 2-389) | n |
| CCGATTAACATCAGGCAATTCCCTGATGTTAATCGGGTCTTGATTCGCTTGACGCTGCTG | GST-Aq-NF-kB (Amphimedon queenslandica, UniProt A9Y5G7 2-389) | n |
| CCGATTAACATCAGGACTACCCCTGATGTTAATCGGGTCTTGATTCGCTTGACGCTGCTG | GST-Aq-NF-kB (Amphimedon queenslandica, UniProt A9Y5G7 2-389) | n |
| CCGATTAACATCACATATCCCCCTGATGTTAATCGGGTCTTGATTCGCTTGACGCTGCTG | GST-Aq-NF-kB (Amphimedon queenslandica, UniProt A9Y5G7 2-389) | y |
| CCGATTAACATCAGCAATTTCCCTGATGTTAATCGGGTCTTGATTCGCTTGACGCTGCTG | GST-Aq-NF-kB (Amphimedon queenslandica, UniProt A9Y5G7 2-389) | y |
| CCGATTAACATCAAAATTCCCAATGATGTTAATCGGGTCTTGATTCGCTTGACGCTGCTG | GST-Aq-NF-kB (Amphimedon queenslandica, UniProt A9Y5G7 2-389) | y |
| CCGATTAACATCAACGGGAACTCTGATGTTAATCGGGTCTTGATTCGCTTGACGCTGCTG | GST-Aq-NF-kB (Amphimedon queenslandica, UniProt A9Y5G7 2-389) | y |
| CCGATTAACATCAACGCCCCCCCTGATGTTAATCGGGTCTTGATTCGCTTGACGCTGCTG | GST-Aq-NF-kB (Amphimedon queenslandica, UniProt A9Y5G7 2-389) | y |
| CCGATTAACATCACGGAATTCCATGATGTTAATCGGGTCTTGATTCGCTTGACGCTGCTG | GST-Aq-NF-kB (Amphimedon queenslandica, UniProt A9Y5G7 2-389) | y |
| CCGATTAACATCACGGATTCCCCTGATGTTAATCGGGTCTTGATTCGCTTGACGCTGCTG | GST-Aq-NF-kB (Amphimedon queenslandica, UniProt A9Y5G7 2-389) | n |
| CCGATTAACATCAGGGGGTACCCTGATGTTAATCGGGTCTTGATTCGCTTGACGCTGCTG | GST-Aq-NF-kB (Amphimedon queenslandica, UniProt A9Y5G7 2-389) | n |
| CCGATTAACATCAAACAACCCCCTGATGTTAATCGGGTCTTGATTCGCTTGACGCTGCTG | GST-Aq-NF-kB (Amphimedon queenslandica, UniProt A9Y5G7 2-389) | n |
| CCGATTAACATCAGAATTCTCCCTGATGTTAATCGGGTCTTGATTCGCTTGACGCTGCTG | GST-Aq-NF-kB (Amphimedon queenslandica, UniProt A9Y5G7 2-389) | y |
| CCGATTAACATCAGGGATTAACATGATGTTAATCGGGTCTTGATTCGCTTGACGCTGCTG | GST-Aq-NF-kB (Amphimedon queenslandica, UniProt A9Y5G7 2-389) | y |
| CCGATTAACATCAGGATCCCCCCTGATGTTAATCGGGTCTTGATTCGCTTGACGCTGCTG | GST-Aq-NF-kB (Amphimedon queenslandica, UniProt A9Y5G7 2-389) | n |
